Values from ChEMBL document CHEMBL4840333

Test system: A549
Assay: Cytotoxicity against human A549 cells assessed as reduction in cell viability incubated for 72 hrs by EZ-Cytox colorimetric assay
Type: functional, cell-based
Conditions: A549, 72 h
Reported IC50 values are given for each entry in this list.

Known IC50 results, listed for orientation:
C[C@H](C[C@@H](C)C(=O)c1ccc(N(C)C)cc1)C(=O)O ... > 100 µM
CC(/C=C/C(=O)Nc1ccc(C(=O)N[C@@H](CCC(N)=O)C(=O)O)cc1)=C\[C@@H](C)C(=O)c1ccc(N(C)C)cc1 ... > 100 µM

// below: IC50 requested for another molecule
-- ask Test system A549; read-out IC50; what value for CNc1ccc(C(=O)[C@H](C)C[C@@H](C)C(=O)O)cc1 ?
-- reply > 100 µM

###

# IC50 values compiled below
Biological target: Histone deacetylase
Test: Inhibition of HDAC in human HeLa nuclear extract using Fluor de Lys as substrate incubated for 20 mins by fluorometric assay
Type: subcellular, Nucleus

Known IC50 results, listed for orientation:
CNC(=O)/C=C/C(C)=C/[C@@H](C)C(=O)c1ccc(N(C)C)cc1 ... > 100 µM
CC(/C=C/C(N)=O)=C\[C@@H](C)C(=O)c1ccc(N(C)C)cc1 ... > 100 µM
CC(/C=C/C(=O)N[C@@H](CCC(=O)O)C(=O)O)=C\[C@@H](C)C(=O)c1ccc(N(C)C)cc1 ... > 100 µM

-- ask Fill blank: measured IC50 of the molecule CC(/C=C/C(=O)O)=C\[C@@H](C)C(=O)c1ccc(N(C)C)cc1 is ____.
-- reply 95.13 µM

-- ask Please report the recorded IC50 for CC(/C=C/C(=O)N[C@@H](CCC(N)=O)C(=O)O)=C\[C@@H](C)C(=O)c1ccc(N(C)C)cc1 .
-- reply > 100 µM

###

Molecular target: Histone deacetylase
Assay: Inhibition of HDAC in human HeLa nuclear extract using Fluor de Lys as substrate incubated for 20 mins by fluorometric assay
Format: subcellular, Nucleus
Each item that follows carries a reported IC50.

CC(/C=C/C(=O)NO[C@@H]1O[C@H](CO)[C@@H](O)[C@H](O)[C@H]1O)=C\[C@@H](C)C(=O)c1ccc(N(C)C)cc1 ... 23.63 µM
CC(/C=C/C(=O)Nc1ccc(C(=O)N[C@@H](CCC(N)=O)C(=O)O)cc1)=C\[C@@H](C)C(=O)c1ccc(N(C)C)cc1 ... 19.96 µM
C[C@H](C[C@@H](C)C(=O)c1ccc(N(C)C)cc1)C(=O)O ... 39.67 µM

Shift focus to the following entry.
-- ask Need IC50, item CNc1ccc(C(=O)[C@H](C)C[C@@H](C)C(=O)O)cc1
-- reply > 100 µM

###

Tested on: HeLa
Assay: Cytotoxicity against human HeLa cells assessed as reduction in cell viability incubated for 72 hrs by EZ-Cytox colorimetric assay
Type: functional, cell-based
Listed below: IC50 values for each entry.

CC(/C=C/C(=O)Nc1ccc(C(=O)N[C@@H](CCC(N)=O)C(=O)O)cc1)=C\[C@@H](C)C(=O)c1ccc(N(C)C)cc1 ... > 100 µM

-- ask For HeLa, provide IC50 of CNc1ccc(C(=O)[C@H](C)C[C@@H](C)C(=O)O)cc1 please.
-- reply > 100 µM

-- ask # returns recorded IC50 (system: HeLa) for C[C@H](C[C@@H](C)C(=O)c1ccc(N(C)C)cc1)C(=O)O
-- reply > 100 µM
